We begin with a simple list: items and their reported inhibition.
assay: Inhibition of quorum-sensing system in Vibrio harveyi BB170 assessed as inhibition of AI-2 at 0.1 to 10 uM and measured after 24 hrs by bioluminescence assay; details: dose 0.1-10 µM

Worked set:
[
  {
    "ITEM SMILES": "CCCCCCCCCCCCCCCC(=O)O",
    "inhibition": "25%"
  },
  {
    "ITEM SMILES": "CCCCCCCC/C=C\\CCCCCCCC(=O)O",
    "inhibition": "> 75%"
  },
  {
    "ITEM SMILES": "CCCCC/C=C\\C/C=C\\CCCCCCCC(=O)O",
    "inhibition": "> 99%"
  }
]

Read the next record carefully.
Problem: Entry "CCCCCCCCCCCCCCCCCC(=O)O" has what inhibition?
Solution: > 25%

###

We begin with a simple list: items and their reported inhibition.
target: LuxP/Q (Vibrio harveyi) (UniProt P54300+P54302); test: Antagonist activity against Vibrio harveyi BB886 LuxPQ assessed as inhibition of AI-2 induced bioluminescence at 40 uM and measured after 6 hrs by bioluminescence assay; type: protein-complex assay; conditions: filed as antagonist

Worked set:
[
  {
    "COMPOUND": "NC(=S)CS(=O)(=O)c1cccs1",
    "inhibition": "60%"
  },
  {
    "COMPOUND": "COc1ccc(CCC(=O)N[C@@H]2[C@@H](CO)OC(OC)[C@@H]2O)cc1 (some centres undefined)",
    "inhibition": "40%"
  },
  {
    "COMPOUND": "COc1ccc(CCC(=O)N[C@H]2[C@@H](O)[C@H](n3cnc4c(N)ncnc43)O[C@@H]2CO)cc1",
    "inhibition": "80%"
  }
]

Read the next record carefully.
Problem: Entry "COC(=O)c1ccc(B(O)O)cc1" has what inhibition?
Solution: > 80%

###

We begin with a simple list: items and their reported inhibition.
biological target: HTH-type transcriptional regulator LuxR (Vibrio harveyi) (UniProt P21308); assay: Inhibition of LuxR quorum sensing system in Vibrio harveyi BB120 assessed as inhibition of autoinducer-2 induced luxR activity at 100 uM for 16 hrs by bioluminescence assay
Sequence (P21308 whole entry): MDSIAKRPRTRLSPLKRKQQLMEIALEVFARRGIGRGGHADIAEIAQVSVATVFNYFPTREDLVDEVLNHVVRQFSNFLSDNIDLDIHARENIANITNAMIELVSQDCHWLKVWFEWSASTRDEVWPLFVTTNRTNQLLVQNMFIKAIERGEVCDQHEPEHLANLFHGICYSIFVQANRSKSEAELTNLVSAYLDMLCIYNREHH
Answer format: numeric, % implied, no suffix.

Worked set:
[
  {
    "ITEM SMILES": "CN(C)c1ccc(/C=C/C=O)cc1",
    "REPORTED VALUE": 17
  },
  {
    "ITEM SMILES": "CCCC/C=C/C=O",
    "REPORTED VALUE": 55
  }
]

Problem: Entry "O=C/C=C/c1ccccc1[N+](=O)[O-]" has what inhibition?
Solution: 62

Problem: Further, for "CCCC/C=C/C(=O)O" ?
Solution: 36

Problem: Further, for "CCCCCC/C=C/C(=O)OC" ?
Solution: 59

Problem: Further, for "CCCCCC/C=C/C(C)=O" ?
Solution: 100

Problem: Further, for "CC(=O)/C=C/c1ccccc1" ?
Solution: 78

###

assay: Inhibition of quorum-sensing system in Vibrio harveyi BB170 assessed as inhibition of LuxU induced bioluminescence by bioluminescence assay; design: concentration or dose not given beside the values; conditions: concentration not given here
We begin with a simple list: items and their reported inhibition.
Answer format: numeric, % implied, no suffix.

Worked set:
[
  {
    "MOLECULE": "COc1ccc(-c2cc(=O)c3c(OC)c(OC)c(OC)cc3o2)cc1OC",
    "METRIC": "inhibition",
    "REPORTED VALUE": 60
  },
  {
    "MOLECULE": "O=C1CC(c2ccc(O)cc2)Oc2cc(O)cc(O)c21 (centres undefined)",
    "METRIC": "inhibition",
    "REPORTED VALUE": 80
  }
]

Problem: Entry C[C@@H]1O[C@@H](O[C@H]2[C@H](Oc3cc(O)c4c(c3)OC(c3ccc(O)cc3)CC4=O)O[C@H](CO)[C@@H](O)[C@@H]2O)[C@H](O)[C@H](O)[C@H]1O (some centres undefined) has what inhibition?
Solution: 40

Problem: Further, for "O=c1cc(-c2ccc(O)cc2)oc2cc(O)cc(O)c12" ?
Solution: 60

Problem: Further, for COc1ccc(C2CC(=O)c3c(O)cc(O[C@@H]4O[C@H](CO[C@@H]5O[C@@H](C)[C@H](O)[C@@H](O)[C@H]5O)[C@@H](O)[C@H](O)[C@H]4O)cc3O2)cc1O (some centres undefined) ?
Solution: 10

###

target: LuxP/Q (Vibrio harveyi, UniProt P54300+P54302); experiment: Antagonist activity against LuxPQ quorum sensing system in Vibrio harveyi MM32 assessed as inhibition of luminescence intensity incubated for 3 to 4 hrs by luminescence microplate reader analysis
Sequence (P54300 whole entry): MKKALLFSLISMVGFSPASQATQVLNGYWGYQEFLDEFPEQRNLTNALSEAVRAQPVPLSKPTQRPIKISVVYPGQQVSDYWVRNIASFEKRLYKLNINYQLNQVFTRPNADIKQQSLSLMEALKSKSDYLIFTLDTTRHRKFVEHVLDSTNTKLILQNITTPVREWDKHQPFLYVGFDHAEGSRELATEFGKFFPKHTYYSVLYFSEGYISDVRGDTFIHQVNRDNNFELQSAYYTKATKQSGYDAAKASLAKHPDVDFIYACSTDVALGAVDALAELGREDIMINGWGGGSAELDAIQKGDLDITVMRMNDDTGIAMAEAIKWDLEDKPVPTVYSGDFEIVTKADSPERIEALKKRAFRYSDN
Sequence (P54302 whole entry): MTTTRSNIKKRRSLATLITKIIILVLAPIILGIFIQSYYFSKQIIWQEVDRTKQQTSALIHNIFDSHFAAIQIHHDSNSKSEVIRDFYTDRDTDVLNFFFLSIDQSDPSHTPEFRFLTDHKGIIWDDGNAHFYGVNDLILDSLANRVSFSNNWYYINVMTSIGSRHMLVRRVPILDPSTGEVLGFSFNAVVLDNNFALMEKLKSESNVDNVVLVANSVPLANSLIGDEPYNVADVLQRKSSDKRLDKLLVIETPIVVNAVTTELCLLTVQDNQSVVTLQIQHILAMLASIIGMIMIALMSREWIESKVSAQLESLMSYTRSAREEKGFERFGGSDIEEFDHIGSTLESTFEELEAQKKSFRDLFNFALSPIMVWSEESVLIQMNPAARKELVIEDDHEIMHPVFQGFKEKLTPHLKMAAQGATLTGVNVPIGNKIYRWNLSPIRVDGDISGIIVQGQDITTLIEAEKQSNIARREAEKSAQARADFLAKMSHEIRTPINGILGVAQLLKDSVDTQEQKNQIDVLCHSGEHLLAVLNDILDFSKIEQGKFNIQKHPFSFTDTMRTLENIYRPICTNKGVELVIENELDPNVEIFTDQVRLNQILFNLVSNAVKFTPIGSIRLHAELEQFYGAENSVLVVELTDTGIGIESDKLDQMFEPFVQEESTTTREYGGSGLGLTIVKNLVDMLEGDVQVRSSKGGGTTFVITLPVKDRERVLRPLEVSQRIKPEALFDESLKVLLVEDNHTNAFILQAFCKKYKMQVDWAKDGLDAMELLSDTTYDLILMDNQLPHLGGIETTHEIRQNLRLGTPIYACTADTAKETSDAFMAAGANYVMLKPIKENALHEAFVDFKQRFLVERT
We begin with a simple list: items and their reported pIC50.
Formally, pIC50 is defined as -log10 of the concentration c, with c in mol/L.

Worked set:
[
  {
    "ITEM SMILES": "N#Cc1ccc(B(O)O)cc1",
    "pIC50": 5.22
  },
  {
    "ITEM SMILES": "Cc1ccc(B(O)O)c(F)c1",
    "pIC50": 5.40
  }
]

Problem: Entry "OB(O)c1ccc(OCc2ccccc2)cc1" has what pIC50?
Solution: 5.40

Problem: Further, for "COC(=O)c1ccc(B(O)O)cc1" ?
Solution: 5.30

Problem: Further, for "Cc1ccc(B(O)O)cc1F" ?
Solution: 5.05

###

target: Autoinducer 1 sensor kinase/phosphatase LuxN (Vibrio harveyi, UniProt P0C5S6); test: Antagonist activity at LuxN signaling in Vibrio harveyi HLS253 assessed as inhibition of 3-hydroxybutanoyl homoserine lactone induced bioluminescence by autoinducer based bioluminescence assay
Sequence (P0C5S6 whole entry): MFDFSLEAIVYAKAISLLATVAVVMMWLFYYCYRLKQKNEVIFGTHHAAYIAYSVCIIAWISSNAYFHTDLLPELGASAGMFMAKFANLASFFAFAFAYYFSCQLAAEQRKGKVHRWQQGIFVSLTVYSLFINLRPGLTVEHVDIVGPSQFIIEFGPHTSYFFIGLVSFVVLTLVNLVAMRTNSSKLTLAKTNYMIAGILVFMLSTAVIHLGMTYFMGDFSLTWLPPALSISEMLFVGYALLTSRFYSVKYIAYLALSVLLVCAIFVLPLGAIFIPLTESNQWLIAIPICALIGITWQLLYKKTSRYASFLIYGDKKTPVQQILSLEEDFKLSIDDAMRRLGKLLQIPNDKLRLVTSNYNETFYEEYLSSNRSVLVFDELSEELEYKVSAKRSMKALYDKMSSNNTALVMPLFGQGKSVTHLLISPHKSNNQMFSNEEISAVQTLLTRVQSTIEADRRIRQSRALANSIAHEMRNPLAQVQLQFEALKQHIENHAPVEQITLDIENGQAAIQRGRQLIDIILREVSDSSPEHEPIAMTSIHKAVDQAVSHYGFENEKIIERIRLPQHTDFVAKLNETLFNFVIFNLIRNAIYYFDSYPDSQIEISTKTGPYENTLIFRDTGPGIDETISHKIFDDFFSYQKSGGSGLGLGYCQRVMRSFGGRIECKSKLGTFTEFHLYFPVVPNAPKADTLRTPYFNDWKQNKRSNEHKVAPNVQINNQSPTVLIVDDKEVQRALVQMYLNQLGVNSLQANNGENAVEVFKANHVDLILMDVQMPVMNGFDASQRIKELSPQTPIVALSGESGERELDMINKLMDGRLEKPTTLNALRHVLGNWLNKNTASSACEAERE
METRIC: pIC50
Formally, pIC50 is defined as -log10 of the concentration c, with c in mol/L.

[
  {
    "MOLECULE": "CC(=O)N1CCc2cc(S(=O)(=O)NC(CC(C)C)C(=O)CCc3ccc(O)cc3)ccc21 (configuration not stated)",
    "pIC50": 5.57
  }
]

Read the next record carefully.
Problem: Entry "O=C(c1ccc(O)cc1)c1ccc(S(=O)(=O)c2ccc(O)cc2)cc1" has what pIC50?
Solution: 5.59

###

target: HTH-type transcriptional regulator LuxR (Vibrio harveyi); test: Inhibition of LuxR quorum sensing system in Vibrio harveyi BB120 assessed as inhibition of autoinducer-2 induced luxR activity at 100 uM for 16 hrs by bioluminescence assay
Reported inhibition maps to class as: bin 1 (below 60%), bin 2 (60% to below 90%), bin 3 (90% or more)

[
  {
    "ITEM SMILES": "CS(=O)(=O)/C=C/c1ccccc1",
    "LABEL": "bin 2"
  },
  {
    "ITEM SMILES": "O=C/C=C/c1ccc(Cl)c(C(F)(F)F)c1",
    "LABEL": "bin 3"
  },
  {
    "ITEM SMILES": "CCCCCCCCC/C=C/C=O",
    "LABEL": "bin 2"
  },
  {
    "ITEM SMILES": "O=C/C=C/c1c(F)c(F)c(F)c(F)c1F",
    "LABEL": "bin 3"
  },
  {
    "ITEM SMILES": "CCCC/C=C/C(C)=O",
    "LABEL": "bin 2"
  },
  {
    "ITEM SMILES": "CCCCCC/C=C/C=O",
    "LABEL": "bin 3"
  }
]

Problem: Class label required: "CCCCC/C=C/C(C)=O"
Solution: bin 3

Problem: Further, for "COc1ccccc1/C=C/C=O" ?
Solution: bin 1

Problem: Further, for "CC/C=C/C=O" ?
Solution: bin 1

Problem: Further, for "O=C/C=C/c1ccccc1" ?
Solution: bin 2

Problem: Further, for "O=C/C=C/c1ccc([N+](=O)[O-])cc1" ?
Solution: bin 1

Problem: Further, for "CCC/C=C/C=O" ?
Solution: bin 1

Problem: Further, for "O=C/C=C/c1ccc(Cl)c(Cl)c1" ?
Solution: bin 3

###

We begin with a simple list: items and their reported inhibition.
assay: Inhibition of quorum-sensing system in Vibrio harveyi BB170 assessed as inhibition of LuxU induced bioluminescence by bioluminescence assay; set-up: concentration or dose not given beside the values; details: concentration not given here

[
  {
    "COMPOUND": "O=c1c(O)c(-c2ccc(O)cc2)oc2cc(O)cc(O)c12",
    "REPORTED VALUE": "> 99%"
  }
]

Problem: Entry "O=c1c(O)c(-c2ccc(O)c(O)c2)oc2cc(O)cc(O)c12" has what inhibition?
Solution: > 99%

Problem: Further, for C[C@@H]1O[C@@H](O[C@H]2[C@H](Oc3cc(O)c4c(c3)OC(c3ccc(O)c(O)c3)CC4=O)O[C@H](CO)[C@@H](O)[C@@H]2O)[C@H](O)[C@H](O)[C@H]1O (some centres undefined) ?
Solution: > 20%

Problem: Further, for COc1ccc(C2CC(=O)c3c(O)cc(O[C@@H]4O[C@H](CO)[C@@H](O)[C@H](O)[C@H]4O[C@@H]4O[C@@H](C)[C@H](O)[C@@H](O)[C@H]4O)cc3O2)cc1O (some centres undefined) ?
Solution: > 20%
